# target.system: Abf1 (UniProt P14164)
# Sequence: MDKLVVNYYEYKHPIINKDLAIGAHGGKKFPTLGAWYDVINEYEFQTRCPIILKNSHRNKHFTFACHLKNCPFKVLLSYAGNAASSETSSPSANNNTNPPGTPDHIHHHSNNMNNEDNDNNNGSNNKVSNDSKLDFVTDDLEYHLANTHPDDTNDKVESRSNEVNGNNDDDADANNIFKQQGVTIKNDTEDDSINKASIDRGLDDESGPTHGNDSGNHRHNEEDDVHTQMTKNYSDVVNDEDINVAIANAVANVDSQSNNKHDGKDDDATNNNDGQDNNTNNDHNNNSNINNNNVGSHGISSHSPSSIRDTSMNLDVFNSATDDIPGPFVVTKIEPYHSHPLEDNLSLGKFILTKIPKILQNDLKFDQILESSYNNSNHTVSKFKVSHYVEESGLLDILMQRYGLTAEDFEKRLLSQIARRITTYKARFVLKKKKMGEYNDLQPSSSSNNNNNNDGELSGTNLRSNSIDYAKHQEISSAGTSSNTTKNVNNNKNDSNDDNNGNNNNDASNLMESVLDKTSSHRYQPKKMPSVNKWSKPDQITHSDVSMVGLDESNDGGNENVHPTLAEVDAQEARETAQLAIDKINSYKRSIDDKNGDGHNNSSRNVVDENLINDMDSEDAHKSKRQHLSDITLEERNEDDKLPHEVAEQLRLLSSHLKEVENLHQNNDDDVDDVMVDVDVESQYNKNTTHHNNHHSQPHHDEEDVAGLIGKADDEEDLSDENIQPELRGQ
# measurement.protocol: PBM E-score (8-mer binding enrichment) (E-score (-0.5 to 0.5)); higher = stronger / more preferred TF binding
# measurement.context: protein concentration: 200 nM; construct: GST-full length
In all, about 33,000 sequences were measured (“E-score (-0.5 to 0.5)”: median about -0.015, highest 2% from about 0.3 on). Shown is part of a subset that was picked to be rich in the highest values.
Decision: PBM E-score compared against 0.09; not below it gives MET, below it gives NOT MET.

The following sequences have reported results that may help.
TCGTCGAA :: MET
GCGTCGCA :: NOT MET
ACCTCTGG :: NOT MET
ATCGTATA :: MET
CATTATCG :: NOT MET

Query: Quick check: does ACGTATGG have PBM E-score greater than or equal to 0.09?
Reply: MET

Query: Hello, I need to know if ACAACGCA has measured PBM E-score not below 0.09. Thanks!
Reply: NOT MET

----------
# target.system: Abf1 (UniProt P14164)
# Sequence: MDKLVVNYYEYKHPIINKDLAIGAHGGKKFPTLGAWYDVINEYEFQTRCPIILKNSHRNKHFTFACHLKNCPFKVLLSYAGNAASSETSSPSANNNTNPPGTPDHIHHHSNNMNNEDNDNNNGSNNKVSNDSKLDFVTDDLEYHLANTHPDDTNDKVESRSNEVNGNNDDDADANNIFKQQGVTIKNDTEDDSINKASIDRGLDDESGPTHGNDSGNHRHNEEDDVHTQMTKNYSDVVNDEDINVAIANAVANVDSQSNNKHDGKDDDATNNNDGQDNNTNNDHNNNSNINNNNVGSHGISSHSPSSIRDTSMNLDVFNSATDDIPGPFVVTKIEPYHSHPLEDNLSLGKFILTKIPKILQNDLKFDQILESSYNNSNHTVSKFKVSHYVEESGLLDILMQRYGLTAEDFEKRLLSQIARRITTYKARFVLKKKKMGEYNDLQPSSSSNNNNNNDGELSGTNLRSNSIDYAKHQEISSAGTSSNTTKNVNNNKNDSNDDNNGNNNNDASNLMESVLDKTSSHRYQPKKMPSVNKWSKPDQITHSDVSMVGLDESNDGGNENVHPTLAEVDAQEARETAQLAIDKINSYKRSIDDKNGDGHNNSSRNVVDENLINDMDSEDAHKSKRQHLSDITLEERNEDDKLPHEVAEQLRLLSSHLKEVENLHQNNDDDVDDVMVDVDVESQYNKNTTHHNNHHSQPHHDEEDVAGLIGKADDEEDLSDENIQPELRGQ
# measurement.protocol: PBM E-score (8-mer binding enrichment) (E-score (-0.5 to 0.5)); higher = stronger / more preferred TF binding
# measurement.context: protein concentration: 200 nM; construct: GST-full length
Over roughly 33,000 sequences, “E-score (-0.5 to 0.5)” has its median near -0.015; the highest 2% begin near 0.3. This excerpt belongs to a sample that is enriched for the highest values.
# PBM E-score listing for each entry below
Just the number, please, no unit after it.

ATGTTCGC :: 0.00598
AAGTCACG :: 0.268
CTAGGGCA :: -0.273
AAGATAGG :: -0.151
CCGCCGTA :: 0.0615

Query: Quick one: PBM E-score of TCGTGGAA ?
Reply: 0.336

Query: PBM E-score lookup needed for CCGCCGTC , thanks.
Reply: 0.334

Query: Entry under review: AGGTCACT . Reported PBM E-score?
Reply: 0.304

Query: Give the measured PBM E-score of ACATGTCA .
Reply: 0.221

Query: What value of PBM E-score has been recorded for this entry: ACGCCGTC
Reply: 0.282

Query: PBM E-score lookup needed for ATCCACAC , thanks.
Reply: -0.103

----------
Quick reference for PBM E-score among some sequences
# target.system: Abf1 (UniProt P14164)
# Sequence: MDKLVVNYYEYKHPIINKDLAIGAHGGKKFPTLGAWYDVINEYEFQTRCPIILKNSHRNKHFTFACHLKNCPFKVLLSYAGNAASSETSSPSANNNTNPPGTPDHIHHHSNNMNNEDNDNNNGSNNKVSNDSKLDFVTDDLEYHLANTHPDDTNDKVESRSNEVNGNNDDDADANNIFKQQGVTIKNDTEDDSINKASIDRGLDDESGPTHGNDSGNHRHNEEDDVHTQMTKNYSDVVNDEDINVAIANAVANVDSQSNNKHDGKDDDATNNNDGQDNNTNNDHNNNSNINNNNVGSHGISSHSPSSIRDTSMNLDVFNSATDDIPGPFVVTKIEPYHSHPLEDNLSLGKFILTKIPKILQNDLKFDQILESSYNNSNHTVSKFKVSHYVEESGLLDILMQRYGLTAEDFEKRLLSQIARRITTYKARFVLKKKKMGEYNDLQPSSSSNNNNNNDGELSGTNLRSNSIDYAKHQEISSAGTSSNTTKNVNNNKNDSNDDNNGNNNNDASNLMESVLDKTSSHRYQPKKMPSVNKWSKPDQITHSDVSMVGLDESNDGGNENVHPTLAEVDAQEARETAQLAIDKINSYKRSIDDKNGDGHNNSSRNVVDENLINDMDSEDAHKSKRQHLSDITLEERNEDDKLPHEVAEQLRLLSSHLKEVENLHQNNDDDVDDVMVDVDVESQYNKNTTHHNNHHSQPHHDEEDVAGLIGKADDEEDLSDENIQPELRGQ
# measurement.protocol: PBM E-score (8-mer binding enrichment) (E-score (-0.5 to 0.5)); higher = stronger / more preferred TF binding
# measurement.context: protein concentration: 200 nM; construct: GST-full length
The full ranking holds about 33,000 sequences; the median of “E-score (-0.5 to 0.5)” is about -0.015, and the highest 2% start at about 0.3. The full list was thinned out, with the highest values kept by preference.
Respond with the number and no other words.

Recorded results for 3 sequences are shown here.
ACGCGGGC :: -0.0155
CTACGAAA :: 0.122
ATAAACCA :: 0.0453

Query: Value lookup for PBM E-score; key = ATACGAAC
Reply: 0.294

Query: What value of PBM E-score has been reported for the following sequence? AAGGATGC
Reply: -0.213

Query: PBM E-score lookup needed for GAACGCGC , thanks.
Reply: 0.0459

Query: Quick one: PBM E-score for GCACGAAC ?
Reply: 0.269

Query: What measured PBM E-score goes with GGCGTCAA ?
Reply: -0.206

Query: Record request: PBM E-score value, item GCCTCCAA
Reply: -0.121

----------
# target.system: Abf1 (UniProt P14164)
# Sequence: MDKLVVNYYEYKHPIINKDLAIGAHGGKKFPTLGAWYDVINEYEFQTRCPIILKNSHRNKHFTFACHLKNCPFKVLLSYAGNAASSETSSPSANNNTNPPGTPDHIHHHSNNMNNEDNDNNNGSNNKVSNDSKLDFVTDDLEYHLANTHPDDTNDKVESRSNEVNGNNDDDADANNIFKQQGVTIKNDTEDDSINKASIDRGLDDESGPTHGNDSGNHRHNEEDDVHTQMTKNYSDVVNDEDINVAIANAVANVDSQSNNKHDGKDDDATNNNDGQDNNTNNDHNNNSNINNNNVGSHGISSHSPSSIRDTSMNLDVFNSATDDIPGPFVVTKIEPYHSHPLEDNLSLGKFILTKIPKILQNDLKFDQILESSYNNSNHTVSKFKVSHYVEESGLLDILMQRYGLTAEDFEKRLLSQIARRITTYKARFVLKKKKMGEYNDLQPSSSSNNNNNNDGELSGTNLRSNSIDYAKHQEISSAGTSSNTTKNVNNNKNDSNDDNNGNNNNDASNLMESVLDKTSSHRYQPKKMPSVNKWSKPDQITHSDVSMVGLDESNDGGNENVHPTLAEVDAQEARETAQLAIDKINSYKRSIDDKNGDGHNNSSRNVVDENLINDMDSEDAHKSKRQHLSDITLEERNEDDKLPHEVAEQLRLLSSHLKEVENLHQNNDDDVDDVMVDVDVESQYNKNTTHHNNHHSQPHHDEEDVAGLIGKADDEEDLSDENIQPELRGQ
# measurement.protocol: PBM E-score (8-mer binding enrichment) (E-score (-0.5 to 0.5)); higher = stronger / more preferred TF binding
# measurement.context: protein concentration: 200 nM; construct: GST-full length
Whole data set: some 33,000 sequences, median “E-score (-0.5 to 0.5)” near -0.015, cut for the highest 2% near 0.3. This excerpt belongs to a sample that is enriched for the highest values.
measurement.kind: PBM E-score
Form field (numeric): enter value without unit.

Example entries begin here.
CCGTGCGA :: 0.354
CGTTTATA :: 0.196
AAATCACT :: 0.374

Query: Recorded PBM E-score of CTCGCATA , please.
Reply: -0.0654

Query: What does the record list as PBM E-score for TCCTACGA ?
Reply: 0.347

Query: For TATGATGA , what is its reported PBM E-score?
Reply: 0.313

Query: Find the recorded PBM E-score belonging to CCTCTATC and report it.
Reply: -0.0168

Query: Requested read-out: PBM E-score. Entry: TACGCGCA
Reply: 0.0188

Query: Fill in: PBM E-score of GGTGTACA is ___
Reply: -0.178

Query: Please give the measured PBM E-score for this sequence: TAAACTCA
Reply: -0.0231

Query: I would be grateful if you could share the reported PBM E-score for AAATCACG .
Reply: 0.284

These data points were gathered from the supplement of paper PMC3334620.
